target.system: α1G T-type Ca2+ channels (Homo sapiens, UniProt O43497)
Construct: expressed in transfected cells; host or cells: HEK293 cells stably expressing α1G and Kir2.1
Sequence (O43497 whole entry): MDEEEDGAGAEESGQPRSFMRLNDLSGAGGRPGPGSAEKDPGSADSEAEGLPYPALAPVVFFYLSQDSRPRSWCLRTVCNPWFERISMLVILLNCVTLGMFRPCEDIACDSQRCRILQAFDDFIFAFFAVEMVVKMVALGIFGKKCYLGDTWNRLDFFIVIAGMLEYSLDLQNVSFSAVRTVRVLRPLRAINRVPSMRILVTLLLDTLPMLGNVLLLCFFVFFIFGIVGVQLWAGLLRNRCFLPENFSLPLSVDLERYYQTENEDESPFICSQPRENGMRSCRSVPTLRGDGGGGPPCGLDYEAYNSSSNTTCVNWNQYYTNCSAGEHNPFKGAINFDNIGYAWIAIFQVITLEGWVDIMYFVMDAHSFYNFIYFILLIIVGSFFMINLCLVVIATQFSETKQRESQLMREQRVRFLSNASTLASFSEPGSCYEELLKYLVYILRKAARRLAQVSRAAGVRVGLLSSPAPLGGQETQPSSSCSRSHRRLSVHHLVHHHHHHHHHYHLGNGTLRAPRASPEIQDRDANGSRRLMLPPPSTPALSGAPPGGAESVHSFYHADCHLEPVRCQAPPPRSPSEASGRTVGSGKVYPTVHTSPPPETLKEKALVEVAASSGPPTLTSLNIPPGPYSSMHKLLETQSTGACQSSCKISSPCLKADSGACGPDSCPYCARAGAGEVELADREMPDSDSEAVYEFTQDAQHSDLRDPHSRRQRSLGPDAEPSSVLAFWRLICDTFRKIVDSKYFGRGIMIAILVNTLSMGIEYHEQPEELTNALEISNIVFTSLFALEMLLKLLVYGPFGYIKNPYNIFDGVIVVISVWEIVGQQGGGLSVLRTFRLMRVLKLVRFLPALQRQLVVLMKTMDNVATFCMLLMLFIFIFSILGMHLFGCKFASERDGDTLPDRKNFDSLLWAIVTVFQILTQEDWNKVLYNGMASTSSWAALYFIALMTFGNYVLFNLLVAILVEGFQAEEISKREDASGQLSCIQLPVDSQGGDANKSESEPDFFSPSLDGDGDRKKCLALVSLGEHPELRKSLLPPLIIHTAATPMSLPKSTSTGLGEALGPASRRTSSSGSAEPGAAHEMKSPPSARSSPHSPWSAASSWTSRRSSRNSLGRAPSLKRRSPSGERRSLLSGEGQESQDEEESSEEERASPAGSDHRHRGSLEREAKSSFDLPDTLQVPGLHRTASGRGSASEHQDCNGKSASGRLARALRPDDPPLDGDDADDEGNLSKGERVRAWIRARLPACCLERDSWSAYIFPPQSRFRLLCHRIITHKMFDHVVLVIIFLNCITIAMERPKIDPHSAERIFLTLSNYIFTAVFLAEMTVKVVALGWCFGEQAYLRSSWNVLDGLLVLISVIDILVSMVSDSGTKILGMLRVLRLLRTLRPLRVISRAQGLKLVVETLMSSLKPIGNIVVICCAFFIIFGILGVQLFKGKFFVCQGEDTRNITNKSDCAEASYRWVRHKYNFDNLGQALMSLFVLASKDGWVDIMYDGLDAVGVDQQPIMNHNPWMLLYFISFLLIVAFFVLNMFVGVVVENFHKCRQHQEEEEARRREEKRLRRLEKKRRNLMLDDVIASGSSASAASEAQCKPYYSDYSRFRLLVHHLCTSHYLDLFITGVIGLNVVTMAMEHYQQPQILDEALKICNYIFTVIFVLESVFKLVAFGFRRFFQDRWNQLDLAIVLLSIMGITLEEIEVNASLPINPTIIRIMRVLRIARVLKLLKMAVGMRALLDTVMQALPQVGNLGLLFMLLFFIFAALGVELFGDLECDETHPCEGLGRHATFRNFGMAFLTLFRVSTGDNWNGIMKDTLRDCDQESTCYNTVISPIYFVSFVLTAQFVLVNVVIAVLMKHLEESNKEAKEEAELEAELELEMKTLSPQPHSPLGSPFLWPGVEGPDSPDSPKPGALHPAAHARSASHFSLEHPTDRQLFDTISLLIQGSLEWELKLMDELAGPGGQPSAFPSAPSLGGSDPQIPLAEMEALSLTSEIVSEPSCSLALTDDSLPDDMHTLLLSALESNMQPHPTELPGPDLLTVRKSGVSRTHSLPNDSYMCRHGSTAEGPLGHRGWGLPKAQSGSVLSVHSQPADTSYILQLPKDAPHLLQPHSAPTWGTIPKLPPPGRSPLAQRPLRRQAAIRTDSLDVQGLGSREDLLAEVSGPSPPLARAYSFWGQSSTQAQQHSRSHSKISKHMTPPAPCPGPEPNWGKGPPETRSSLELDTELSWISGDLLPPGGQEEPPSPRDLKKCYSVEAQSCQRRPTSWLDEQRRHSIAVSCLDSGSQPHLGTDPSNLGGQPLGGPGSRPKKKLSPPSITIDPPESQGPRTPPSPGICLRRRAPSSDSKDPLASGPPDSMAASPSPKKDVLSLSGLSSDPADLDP
test: Screening of activity against T-type calcium channel with FDSS6000 (fluorescence, KCl-induced [Ca2+]i increase)
Type: cell-based
protocol.conditions: 100 μM; HEK293 cells expressing α1G and Kir2.1; read-out: Inhibitory effect (%) of T-type calcium channel, Inhibition (%)
Threshold check on inhibition at 100 µM: at or above 40% gives true, strictly below gives false.

# molecule, assigned.class
measured = [
    ("O=C(NCCN1CCCCC1)c1ccc2c(c1)C(=O)N(c1cccc(F)c1)C2=O", "true"),
    ("O=C(NCCN1CCCC1)c1ccc2c(c1)C(=O)N(Cc1ccccc1F)C2=O", "true"),
    ("O=C(NCCN1CCOCC1)c1ccc2c(c1)C(=O)N(c1ccccc1)C2=O", "false"),
]

Problem: Exam item: decide whether the reported inhibition at 100 µM for COc1cccc(CN2C(=O)c3ccc(C(=O)NCCCN4CCCCC4C)cc3C2=O)c1 (stereo not drawn) is at least 40%.
Result: true

Problem: Quick one: `Cc1cccc(CN2C(=O)c3ccc(C(=O)NCCN4CCCCC4)cc3C2=O)c1`
Result: true

Values from patent US7319098B2
